# assay-method-text: small-molecule microarray binders of probe aWnt5a, primary screen, biochemical, biotinylated probe, 635/667 nm fluorescence (AID 1113);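 note: score merges 667 nm fluorescence intensity with signal-to-noise per printed feature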
# run-conditions: higher = more signal
Kind request: treat 0.002 as inclusive, so composite z-score at 0.002 or higher is y, anything lower is n.

[[record]]
compound = "CC(C)=CCCC(C)=CC(O)C1C=CC2C(=O)N(C)C(=O)C2N1Nc1ccccc1 (configuration not stated)"
category_label = "y"

[[record]]
compound = "C=C(CCCC)/C(=C/C[C@H](OC(C)=O)c1ccccc1OCCO)c1cc(C(=O)OC)ccc1OC"
category_label = "n"

[[record]]
compound = "COc1ccc(C#Cc2ccc3c(c2)[C@]2(C(=O)N3)[C@H](C(=O)NC[C@H](O)c3ccccc3)[C@H]3C(=O)O[C@H](c4ccccc4)[C@H](c4ccccc4)N3[C@@H]2c2ccc(O)cc2)cc1"
category_label = "y"

[[record]]
compound = "C=CC(=C)[C@H]1Oc2ccccc2S(=O)(=O)N2CCC[C@@H]12"
category_label = "n"

[[record]]
compound = "COCCOC(=O)N1C(=O)[C@@]2(c3cc(C#Cc4ccc(OC)cc4)ccc31)[C@H](c1ccc(O)cc1)N1[C@H](c3ccccc3)[C@H](c3ccccc3)OC(=O)[C@H]1[C@@H]2C(=O)N1CCc2cc(OC)c(OC)cc2C1"
category_label = "n"


Test whether the compound C=CCOC(=O)[C@H]1[C@@H]2C(=O)O[C@@H](c3ccccc3)[C@@H](c3ccccc3)N2[C@@H](c2ccc(OCCOC(=O)[C@H]3C[C@H]4C(=O)N[C@@H](CCCCNC(C)=O)C(=O)N4[C@H]3c3cccc(OCCO)c3)cc2)[C@]12C(=O)Nc1ccccc12 records composite z-score of 0.002 or higher. n

Check the entry COCCOC(=O)N1C(=O)[C@@]2(c3cc(C#CC4(O)CCCCCC4)ccc31)[C@H](c1ccccc1OCCO)N1[C@H](c3ccccc3)[C@H](c3ccccc3)OC(=O)[C@H]1[C@@H]2C(=O)N1CCN(c2ncccn2)CC1 : does composite z-score equal or exceed 0.002? n

Hi, just wondering whether CO[C@H]1O[C@H](CO)[C@@H](OC(=O)Nc2ccc(C(F)(F)F)cc2)[C@H](OC(=O)Nc2ccc3c(c2)OCO3)[C@@H]1OC(=O)Nc1ccc2c(c1)OCO2 shows composite z-score of 0.002 or higher. y

# check: composite z-score of CO[C@H]1O[C@H](CO)[C@@H](OC(=O)Nc2ccc(Oc3ccccc3)cc2)[C@H](OC(=O)Nc2ccc3c(c2)OCO3)[C@H]1OC(=O)Nc1ccc2c(c1)OCO2 is greater than or equal to 0.002 y

Quick check: does COC(=O)[C@@]1(Cc2ccc(OC)cc2)[C@H]2c3cc(C(=O)N(C)C)n(C)c3C[C@H]2CN1C(=O)c1ccccc1 have composite z-score greater than or equal to 0.002? y

Is composite z-score for COc1ccc(-c2cc3c(c(-c4ccc(Oc5ccccc5)cc4)n2)[Si](C(C)C)(C(C)C)OC3)cn1 at or above 0.002? n

Check this compound for composite z-score at or above 0.002: O=C1c2ccccc2[C@](Cc2ccccc2I)(C(=O)NCCN2CCOCC2)[C@H](c2ccc(CO)cc2)N1Cc1ccccc1Cl y
